Each recorded value in this set is attributed to patent US8951750B2.

assay: BTB spectrophotometric assay of kinetic constants, substrate phenylmalonate; assay type: biochemical; conditions: substrate 2-phenylmalonic acid (1); His6-tagged enzyme; BTB method
measured.quantity: kcat (s⁻¹)
Answer with a number only, understood to be in s⁻¹.

// sample protein EAN08019.1 from Mesorhizobium sp. BNC1: Asp/Glu racemase [Mesorhizobium sp. BNC1], SEQ ID NO: 4, shown to have AMDase activity (protein, listed as Mesorhizobium sp.) MSAEDPVIGLIVPPAAGLVPPEAVAMYPEVTFHASGLGLKEMTPCGYAGVIDLVGDHAERHAQAGAQAVALMGTSLSFFRGAAFNAELITHMSNRSGLPATTMSQAVVDELKSHGARRIAVVTAYRQDVNNLLAAFLNEHGIEARSLKSLGITSVADVAGTPAKRLLQLCKEAVHDAGPVDAVLISCGGLHTLDVIVDVEISTGLPVVTSATAGVRGAVGLLKRSAETAEHATSKFLTGRALEHHHHHH , its kcat was 118

// sample protein BAA30082.1 from Pyrococcus horikoshii OT3: Hypothetical arylmalonate decarboxylase [Pyrococcus horikoshii OT3], SEQ ID NO: 6 (protein, listed as Pyrococcus horikoshii) MYGWRRRIGLIVPSSNTTMEPEFWKMAPEGVSIHTARMRLREVTEESLLEMERHAKDAALELADAEVDVIVYGCTSGSLIKGKGYDKEIAKNLEEASGIKTITTSTAVLNALNTLDIQKVVVATPYIDSVNEREKEFLEANGIEVLRIKGLGIVKNTEIGRQEPWVAYKLALEVYTPEADGLFISCTNFRTIEIIDKLEVELGVPVVTSNQATMWYALKTMKVKEKYDMYGTLLKEKLLEHHHHHH , its kcat was 0.09

Now for another entry.
// sample AMDase from Bordetella bronchiseptica: arylmalonate decarboxylase from Bordetella bronchiseptica, SEQ ID NO: 2, Blast entry BAA02419.1 (protein, listed as Bordetella bronchiseptica) MQQASTPTIGMIVPPAAGLVPADGARLYPDLPFIASGLGLGSVTPEGYDAVIESVVDHARRLQKQGAAVVSLMGTSLSFYRGAAFNAALTVAMREATGLPCTTMSTAVLNGLRALGVRRVALATAYIDDVNERLAAFLAEESLVPTGCRSLGITGVEAMARVDTATLVDLCVRAFEAAPDSDGILLSCGGLLTLDAIPEVERRLGVPVVSSSPAGFWDAVRLAGGGAKARPGYGRLFDESLEHHHHHH , its kcat was 316.1
